Here the recorded fraction ligated is given for each entry.
B1: F1*; the commonest letter at each place (parent)
chain: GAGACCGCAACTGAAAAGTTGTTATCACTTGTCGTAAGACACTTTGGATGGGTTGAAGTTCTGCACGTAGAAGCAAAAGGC

- Variants of: B1
- Protocol Details: fraction ligated after 30 min (ligated reads / total reads); higher = more ligase activity
- Condition Summary: with F1*sub RNA substrate (template-directed ligation), 42 °C
No unit in the answer, only the number.

Reference set, count: 2
Lab note: T29C G55A gave fraction ligated of 0.815

Lab note: C42A G46T gave fraction ligated of 0.789

Others:
Lab note: A39C C42T gave fraction ligated of 0.827

Lab note: T29C C33A gave fraction ligated of 0.824

Lab note: G34C A48T gave fraction ligated of 0.781

Lab note: T30G T32C gave fraction ligated of 0.784

Lab note: T23A A48C gave fraction ligated of 0.727
